Hey, just so you know, these numbers are from PubChem BioAssay.

Tested on: XIP peptide (Xip251-270)
Assay: compounds binding XIP fragment 251-270 – biochemical, small-molecule microarray, fluorescence 635/667 nm, 0.5 µg/mL protein, primary screen (AID 1183)
Conditions: fluorescence 635 nm, higher = more signal
Output TRUE for composite z-score not less than 0.5; output FALSE otherwise.

Study these solved cases before continuing.
[
  {
    "molecule": "CC[C@@H]1C=C(C(=O)O)[C@H](c2cccc3ccccc23)N1S(=O)(=O)c1ccc(C)cc1",
    "labelValue": "FALSE"
  },
  {
    "molecule": "O=C1NC(=O)C2C1C=CC(C(O)c1ccc(-c3ccccc3)s1)N2Nc1ccc(Cl)cc1Cl (stereo not drawn)",
    "labelValue": "TRUE"
  },
  {
    "molecule": "CC(C)[Si](C#CCCCC#N)(O[C@H](c1ccccc1)c1cn(Cc2cccc(Cl)c2)nn1)C(C)C",
    "labelValue": "TRUE"
  },
  {
    "molecule": "COc1cc(CO)cc(I)c1O[C@H]1C=C(C(=O)NCCO)C[C@@H](N(C(=O)c2cc3ccccc3oc2=O)C2CCCCCC2)[C@@H]1O",
    "labelValue": "FALSE"
  },
  {
    "molecule": "O=C(NC1CC1)[C@@H]1c2ccccc2C(=O)N(Cc2cc(F)cc(C(F)(F)F)c2)[C@H]1c1ccc(CO)cc1",
    "labelValue": "TRUE"
  },
  {
    "molecule": "C=C(CCCC)/C(=C/C[C@H](OC(=O)c1ccncc1)c1ccc(OCCO)cc1)c1cc(C(=O)OC)ccc1OC",
    "labelValue": "FALSE"
  }
]

# ---- query molecule ----
Q) Has `[N-]=[N+]=Nc1ccccc1C[C@]1(C(=O)NCc2ccccc2)N=C(c2ccc(OCCCO)cc2)O[C@H]1c1ccccc1N=[N+]=[N-]` a recorded composite z-score greater than or equal to 0.5?
A) TRUE

###

Target: Alpha-bungarotoxin (Bungarus multicinctus)
Experiment: compounds binding labelled alpha-BTX control protein – biochemical, small-molecule microarray, Alexa647 label, 635/667 nm fluorescence, artefact control for SMM control protein annotation, profiling panel (AID 1117)
Conditions: alpha-BTX-A647 binding fluorescence, higher = more signal
Please mark condition met if the recorded composite z-score is equal to or greater than 1, and condition not met if it falls below.

Worked examples, 3 molecules total:
[
  {
    "molecule": "COc1cc(CO)cc(I)c1O[C@H]1C=C(C(=O)NCCO)C[C@@H](N(C(=O)c2cc3ccccc3oc2=O)C2CCCCCC2)[C@@H]1O",
    "labelValue": "condition not met"
  },
  {
    "molecule": "[N-]=[N+]=Nc1ccccc1C[C@@]1(C(=O)N2CCCCC2)N=C(c2ccc(OCCCO)cc2)O[C@@H]1c1ccccc1N=[N+]=[N-]",
    "labelValue": "condition met"
  },
  {
    "molecule": "O=C1OCCC=C[C@H]2OC34C=CCN(Cn5nnc6ccccc65)C(=O)[C@H]3N(CCO)C(=O)[C@@H]4C12 (some centres not stated)",
    "labelValue": "condition met"
  }
]

Q) # bool: composite z-score of COc1ccc(NN2C(C(O)c3ccc(N(C)C)cc3)C=CC3C(=O)N(C4CCCCC4)C(=O)C32)cc1 (configuration not stated) >= 1
A) condition met

Q) Then `COCCOC(=O)N1C(=O)[C@@]2(c3cc(C#CCCO)ccc31)[C@H](c1ccc(O)cc1)N1[C@H](c3ccccc3)[C@H](c3ccccc3)OC(=O)[C@H]1[C@@H]2C(=O)N1CCN(c2ncccn2)CC1` ?
A) condition met

Q) What about this molecule? O=C1NC(=O)C2C1C=CC(C(O)C=Cc1ccc([N+](=O)[O-])cc1)N2Nc1ccc(Cl)cc1Cl (configuration not stated)
A) condition met

Q) Similarly, `CC(C)[C@@H](C(=O)O)n1cc(C2(O)CCCCC2)nn1` ?
A) condition not met
